Kindly state molar heat capacity at constant pressure for each of the entries shown.
Assay: molar heat capacity at constant pressure
Settings: 285.15 K; 101.33 kPa; Liquid; Small sample (50 mg) DSC
Answers are plain numbers, in J/K/mol.

Below, 6 compounds whose answers are already recorded.
[[record]]
molecule_smiles = "Clc1ccccc1Br"
output_unit = "J/K/mol"
result_value = 172.59

[[record]]
molecule_smiles = "Brc1cccc(Br)c1"
output_unit = "J/K/mol"
result_value = 176.4

[[record]]
molecule_smiles = "Clc1cccc(Br)c1"
output_unit = "J/K/mol"
result_value = 171.49

[[record]]
molecule_smiles = "Brc1ccccc1Br"
output_unit = "J/K/mol"
result_value = 177.83

[[record]]
molecule_smiles = "Clc1ccccc1"
output_unit = "J/K/mol"
result_value = 148.14

[[record]]
molecule_smiles = "Clc1ccccc1Cl"
output_unit = "J/K/mol"
result_value = 168.06


Hi there! I need molar heat capacity at constant pressure for each item below, if you can.
1. Brc1ccccc1
2. Clc1cccc(Cl)c1

1. 151.99
2. 167.54
